Biological target: T1, human BMP6 (human, UniProt P22004 382-513, limits assumed)
T1 sequence: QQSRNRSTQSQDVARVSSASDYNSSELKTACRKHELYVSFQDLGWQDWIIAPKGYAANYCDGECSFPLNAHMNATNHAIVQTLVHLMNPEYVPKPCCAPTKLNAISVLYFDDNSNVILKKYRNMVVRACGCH
Test: cell-based or functional assay
READOUT_TYPE: RGA max
Returns: the value as a bare number; no unit string appended.

Consider the following illustrative entries.
Antibody 7 (antibody, human IgG1, lambda, V domains shown, germlined clone of NOV0806 (HCDR2-matured NOV0442_VL[Y49,G50,N51Q]); human IgG1; final lead; also called NOV0958; NOV958) VH: QVQLVESGGGLVKPGGSLRLSCAASGFTFSSYVVHWVRQAPGKGLEWVGRIRLETHGYAAEYAASVKGRFTISRDDSKNTLYLQMNSLKTEDTAVYYCARVERSKSGFDNWGQGTLVTVSS VL: QSVLTQPPSVSGAPGQRVTISCTGSSSNIGAGYSVHWYQQLPGTAPKLLIYGQSERPSGVPDRFSGSKSGTSASLAITGLQAEDEADYYCQSWDSSQTLVVFGGGTKLTVLG :: 0.9
Antibody 5 (antibody, human IgG1, lambda, V domains shown, germlined clone of NOV0787 (HCDR2-matured NOV0442_VL[Y49,G50,N51Q]); human IgG1; lead antibody; also called NOV0951; NOV951) VH: QVQLVESGGGLVKPGGSLRLSCAASGFTFSSYVVHWVRQAPGKGLEWVGRIKRESSSYTTMYAAPVKGRFTISRDDSKNTLYLQMNSLKTEDTAVYYCARVERSKSGFDNWGQGTLVTVSS VL: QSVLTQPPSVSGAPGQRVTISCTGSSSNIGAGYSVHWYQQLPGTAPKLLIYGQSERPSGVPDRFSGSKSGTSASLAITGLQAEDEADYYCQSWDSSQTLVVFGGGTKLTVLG :: 0.9
Antibody 3 (antibody, human IgG1, lambda, V domains shown, germlined clone of NOV0800 (HCDR2-matured NOV0442_VL[Y49,G50,N51S]); human IgG1; back-up antibody; also called NOV0961; NOV961) VH: QVQLVESGGGLVKPGGSLRLSCAASGFTFSSYVVHWVRQAPGKGLEWVGRIKDHKQGYTTAYAASVKGRFTISRDDSKNTLYLQMNSLKTEDTAVYYCARVERSKSGFDNWGQGTLVTVSS VL: QSVLTQPPSVSGAPGQRVTISCTGSSSNIGAGYSVHWYQQLPGTAPKLLIYGSSERPSGVPDRFSGSKSGTSASLAITGLQAEDEADYYCQSWDSSQTLVVFGGGTKLTVLG :: 0.9

With those in mind, consider the next binder.
Challenge: Any idea what its RGA max is? The binder is Antibody 6 (antibody, human IgG1, lambda, V domains shown, germlined clone of NOV0798 (HCDR2-matured NOV0442_VL[Y49,G50,N51Q]); human IgG1; lead antibody; also called NOV0954; NOV954) VH: QVQLVESGGGLVKPGGSLRLSCAASGFTFSSYVVHWVRQAPGKGLEWVGRTRHSDMGYATSYAAPVKGRFTISRDDSKNTLYLQMNSLKTEDTAVYYCARVERSKSGFDNWGQGTLVTVSS VL: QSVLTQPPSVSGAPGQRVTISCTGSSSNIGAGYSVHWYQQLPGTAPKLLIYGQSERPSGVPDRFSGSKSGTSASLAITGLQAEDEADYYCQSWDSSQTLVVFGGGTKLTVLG
Response given: 1
